The reader will find reported IC50 values listed item by item below.
targetDesc: TAK1-TAB1 fusion protein (Homo sapiens, UniProt O43318)
Construct: purchased Carna
Sequence (O43318 with tags, fused parts or gaps limits assumed): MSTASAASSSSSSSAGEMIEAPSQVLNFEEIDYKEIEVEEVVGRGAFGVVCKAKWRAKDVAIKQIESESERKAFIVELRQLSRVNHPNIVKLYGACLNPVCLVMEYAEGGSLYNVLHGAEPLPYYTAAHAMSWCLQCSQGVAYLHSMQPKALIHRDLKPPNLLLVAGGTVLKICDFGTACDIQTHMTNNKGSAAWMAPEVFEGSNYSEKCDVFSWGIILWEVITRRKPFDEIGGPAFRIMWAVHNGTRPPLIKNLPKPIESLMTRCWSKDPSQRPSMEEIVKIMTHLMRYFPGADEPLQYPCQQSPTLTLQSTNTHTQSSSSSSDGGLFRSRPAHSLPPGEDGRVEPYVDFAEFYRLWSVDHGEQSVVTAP
assayMethodText: TAK1 biochemical assay (AlphaScreen, GST-MAP2K7 substrate)
conditionDescription: TAK1-TAB1 fusion protein, GST-MAP2K7 substrate; read-out: mean TAK1 IC50 (Col. A)
Where a name gives a salt, the structure may show the parent alone.

compound: CC(=O)N1CCC(n2cc(-c3cnc(N)c4oc(-c5ccc(C#N)cc5)cc34)cn2)CC1
IC50: 1000 to 10000 nM
--
compound: CC(=O)N1CCC(n2cc(-c3cnc(N)c4oc(-c5ccc6[nH]ccc6c5)cc34)cn2)CC1
IC50: 1000 to 10000 nM
--
compound: CC(=O)N1CCC(n2cc(-c3cnc(N)c4oc(C5=CCC6(CC5)OCCO6)cc34)cn2)CC1
IC50: > 10000 nM
--
compound: Cc1cc(-c2cnc(N)c3oc(-c4csc5cnccc45)cc23)cs1 [Example 393, trifluoroacetate]
IC50: 1000 to 10000 nM
--
compound: Cn1cnc2cc(-c3oc4c(N)ncc(-c5cnn(C6CCNCC6)c5)c4c3Cl)cnc21 [Example 15, hydrochloride]
IC50: 1000 to 10000 nM
--
compound: Nc1ncc(-c2cnn([C@@H]3C[C@@H](O)[C@@H](O)C3)c2)c2cc(-c3csc4cnccc34)oc12
IC50: < 100 nM
--
compound: CC(=O)N1CCC(n2cc(-c3cnc(N)c4oc(-c5cccc(O)c5)cc34)cn2)CC1
IC50: < 100 nM
--
compound: Nc1ncc(-c2cnn(C3CCN(C(=O)CCc4ccccc4)CC3)c2)c2cc(-c3csc4cnccc34)oc12
IC50: 100 to 1000 nM
--
compound: CC(=O)N1CCC(n2cc(-c3cnc(N)c4oc(-c5cccc(OCc6ccccc6)c5)cc34)cn2)CC1
IC50: > 10000 nM
--
compound: Nc1ncc(-c2cnn(C3CCCCC3)c2)c2cc(-c3cccc4cnccc34)oc12
IC50: 1000 to 10000 nM
--
compound: CNc1ncc(-c2cnn([C@H]3CC[C@H](O)CC3)c2)c2cc(-c3csc4cnc(F)cc34)oc12
IC50: < 100 nM
--
compound: Nc1ncc(-c2cnn([C@H]3CC[C@H](O)CC3)c2)c2cc(-c3cccc4ccsc34)oc12 [Example 232, diformate salt]
IC50: 100 to 1000 nM
--
compound: CC(=O)N1CCC(n2cc(-c3cnc(N)c4oc(-c5ccc6ncn(C)c6c5)cc34)cn2)CC1
IC50: 100 to 1000 nM
--
compound: CC(=O)N1CCC(n2cc(-c3cnc(N)c4oc(-c5ccc(CO)cc5)cc34)cn2)CC1
IC50: 1000 to 10000 nM
--
compound: COCc1ccccc1-c1cc2c(-c3cnn(C4CCN(C(C)=O)CC4)c3)cnc(N)c2o1
IC50: 1000 to 10000 nM
--
compound: Nc1ncc(-c2cnn(C[C@@H](O)CO)c2)c2cc(-c3csc4cnccc34)oc12
IC50: < 100 nM
--
compound: Nc1ncc(-c2cnn(C3CCNCC3)c2)c2cc(-c3cccc4c3NC(=O)C4)oc12
IC50: 1000 to 10000 nM
--
compound: CC(=O)c1ccccc1-c1cc2c(-c3cnn(C4CCN(C(C)=O)CC4)c3)cnc(N)c2o1
IC50: 1000 to 10000 nM
--
compound: CC(=O)N1CCC(n2cc(-c3cnc(N)c4oc(-c5ccccc5C)cc34)cn2)CC1
IC50: 100 to 1000 nM
--
compound: CN1[C@@H]2CC[C@H]1C[C@H](n1cc(-c3cnc(N)c4oc(-c5cccc6cnsc56)cc34)cn1)C2
IC50: < 100 nM
--
compound: Cc1ncc(-c2cnc(N)c3oc(-c4csc5cnccc45)cc23)s1 [Example 388, trifluoroacetate]
IC50: 100 to 1000 nM
--
compound: CC(=O)N1CCC(n2cc(-c3cnc(N)c4oc(-c5cccc([N+](=O)[O-])c5C)cc34)cn2)CC1
IC50: < 100 nM
--
compound: CSc1cccc(-c2cc3c(-c4cnn(C5CCN(C(C)=O)CC5)c4)cnc(N)c3o2)c1
IC50: 1000 to 10000 nM
--
compound: Cc1sc2cnccc2c1-c1cc2c(-c3cnn([C@H]4CC[C@H](O)CC4)c3)cnc(N)c2o1 [Example 252, trifluoroacetate]
IC50: 100 to 1000 nM
--
compound: CC(=O)N1CCC(n2cc(-c3cnc(N)c4oc(-c5cccc(OCc6ccc(Cl)cc6)c5)cc34)cn2)CC1
IC50: > 10000 nM
--
compound: CN1CCC(n2cc(-c3cnc(N)c4oc(-c5cccc6ccsc56)cc34)cn2)CC1
IC50: 1000 to 10000 nM
--
compound: CC(=O)N1CCC(n2cc(-c3cnc(N)c4oc(-c5cccc6cnncc56)cc34)cn2)CC1
IC50: 100 to 1000 nM
--
compound: Cc1nn(CC(O)CO)c(C)c1-c1cnc(N)c2oc(-c3cccc4cnccc34)cc12 (stereo not drawn)
IC50: > 10000 nM
--
compound: Nc1ncc(-c2cnn([C@H]3CC[C@H](O)CC3)c2)c2cc(-c3ccccc3)oc12
IC50: 100 to 1000 nM
--
compound: Cc1c(-c2cnc(N)c3oc(-c4csc5cnccc45)cc23)cnn1[C@@H]1C[C@@H](O)[C@@H](O)C1
IC50: 1000 to 10000 nM
